This collection of values is drawn from patent US9556201B2.

Biological target: SIRT1 (Homo sapiens, UniProt Q96EB6)
Sequence (Q96EB6 1-747): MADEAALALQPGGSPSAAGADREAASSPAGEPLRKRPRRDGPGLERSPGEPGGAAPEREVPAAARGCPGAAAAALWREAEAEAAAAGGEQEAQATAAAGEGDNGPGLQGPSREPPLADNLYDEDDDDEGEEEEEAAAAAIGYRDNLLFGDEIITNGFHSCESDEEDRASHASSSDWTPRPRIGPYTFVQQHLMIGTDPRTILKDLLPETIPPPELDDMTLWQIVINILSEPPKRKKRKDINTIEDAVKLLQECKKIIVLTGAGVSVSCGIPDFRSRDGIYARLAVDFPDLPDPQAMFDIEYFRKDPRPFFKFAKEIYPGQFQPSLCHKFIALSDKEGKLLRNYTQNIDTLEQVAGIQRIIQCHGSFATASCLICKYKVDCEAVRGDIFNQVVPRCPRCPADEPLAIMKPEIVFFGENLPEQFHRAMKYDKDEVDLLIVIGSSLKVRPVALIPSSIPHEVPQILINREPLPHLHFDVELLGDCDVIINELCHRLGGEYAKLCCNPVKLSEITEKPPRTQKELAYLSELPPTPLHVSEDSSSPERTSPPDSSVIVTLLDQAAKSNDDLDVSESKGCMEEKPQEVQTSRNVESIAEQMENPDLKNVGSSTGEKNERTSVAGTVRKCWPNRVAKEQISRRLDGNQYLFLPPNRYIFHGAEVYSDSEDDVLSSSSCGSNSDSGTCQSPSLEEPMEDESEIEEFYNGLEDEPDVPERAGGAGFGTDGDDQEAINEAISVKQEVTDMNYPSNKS
Experiment: Mass spectrometry based assay to identify modulators of SIRT1 activity (deacetylation of p53-based acetylated peptide substrate)
Format: biochemical
Conditions: SIRT1 activation
quantity.measured: EC1.5

Some solved cases for reference:
compound	target.desc	quantity.measured	result
O=C(Nc1ccncc1)N1CCOc2ccc(-c3ccccc3)nc21	SIRT1 (Homo sapiens, UniProt Q96EB6)	EC1.5	A (EC1.5<1.0 μM)
O=C(Nc1cccc(OC[C@H](O)CO)n1)N1CCCc2ccc(-c3cccc(F)c3)nc21	SIRT1 (Homo sapiens, UniProt Q96EB6)	EC1.5	A (EC1.5<1.0 μM)
O=C(Nc1ccccn1)N1CCOc2ccc(-c3cccc(C(F)(F)F)c3)nc21	SIRT1 (Homo sapiens, UniProt Q96EB6)	EC1.5	A (EC1.5<1.0 μM)
Cc1csc(NC(=O)N2CCCOc3ccc(-c4cccc(F)c4)nc32)n1	SIRT1 (Homo sapiens, UniProt Q96EB6)	EC1.5	B (EC1.5 1-25 μM)
Cc1cc(-c2cccc(Cl)c2)nc2c1OCCN2C(=O)Nc1cccc(OCC(O)CO)n1 (centres unmarked)	SIRT1 (Homo sapiens, UniProt Q96EB6)	EC1.5	A (EC1.5<1.0 μM)

Q: For Cc1cc(NC(=O)N2CCCOc3ccc(-c4ccnc(C)c4)nc32)ccn1 , what is its reported EC1.5?
A: B (EC1.5 1-25 μM)

###

Molecular target: SIRT1 (Homo sapiens, UniProt Q96EB6)
Sequence (Q96EB6 1-747): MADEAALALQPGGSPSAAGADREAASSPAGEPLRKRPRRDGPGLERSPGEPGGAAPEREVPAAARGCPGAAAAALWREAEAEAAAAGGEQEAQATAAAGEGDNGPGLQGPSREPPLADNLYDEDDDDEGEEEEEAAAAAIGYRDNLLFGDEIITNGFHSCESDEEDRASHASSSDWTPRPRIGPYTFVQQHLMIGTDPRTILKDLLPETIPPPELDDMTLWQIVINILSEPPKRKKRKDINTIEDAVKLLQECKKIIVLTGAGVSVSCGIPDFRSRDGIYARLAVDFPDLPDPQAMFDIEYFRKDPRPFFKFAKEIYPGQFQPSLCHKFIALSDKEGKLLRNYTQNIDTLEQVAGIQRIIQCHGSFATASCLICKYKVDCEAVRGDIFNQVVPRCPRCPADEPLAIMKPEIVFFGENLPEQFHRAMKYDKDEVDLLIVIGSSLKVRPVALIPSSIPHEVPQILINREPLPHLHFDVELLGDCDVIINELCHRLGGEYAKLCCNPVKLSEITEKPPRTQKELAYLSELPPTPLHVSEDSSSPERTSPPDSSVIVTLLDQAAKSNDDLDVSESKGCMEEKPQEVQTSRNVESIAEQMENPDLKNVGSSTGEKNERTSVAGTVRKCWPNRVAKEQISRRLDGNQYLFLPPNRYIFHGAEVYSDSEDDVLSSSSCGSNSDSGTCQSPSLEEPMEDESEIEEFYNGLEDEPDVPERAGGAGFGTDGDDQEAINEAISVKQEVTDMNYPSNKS
Assay: Mass spectrometry based assay to identify modulators of SIRT1 activity (deacetylation of p53-based acetylated peptide substrate)
Assay type: biochemical
Would you kindly list EC1.5 (concentration giving 1.5-fold activation) for each of these molecules?

Q: Dear colleague, I am looking for the recorded EC1.5 (concentration giving 1.5-fold activation) of the following molecule: Cc1cc(NC(=O)N2CCCOc3ccc(-c4cccc(Cl)c4)nc32)ncc1F
A: 1000 to 25000 nM

Q: Please give the measured EC1.5 (concentration giving 1.5-fold activation) for this molecule: O=C(Nc1ccnc(OCC(O)CO)n1)N1CCc2ccc(-c3cccc(C(F)(F)F)c3)nc21 (stereo not shown)
A: < 1000 nM

Q: Dear colleague, I am looking for the recorded EC1.5 (concentration giving 1.5-fold activation) of the following molecule: Cc1csc(NC(=O)N2CC(C)(C)Oc3ccc(-c4cccc(N5CC[C@@H](F)C5)c4)nc32)n1
A: < 1000 nM

Q: Would you kindly share the measured EC1.5 (concentration giving 1.5-fold activation) for O=C(Nc1cnccn1)N1CCCOc2ccc(-c3cccc(Cl)c3)nc21 ?
A: 1000 to 25000 nM

###

Biological target: SIRT1 (Homo sapiens)
Sequence (Q96EB6 1-747): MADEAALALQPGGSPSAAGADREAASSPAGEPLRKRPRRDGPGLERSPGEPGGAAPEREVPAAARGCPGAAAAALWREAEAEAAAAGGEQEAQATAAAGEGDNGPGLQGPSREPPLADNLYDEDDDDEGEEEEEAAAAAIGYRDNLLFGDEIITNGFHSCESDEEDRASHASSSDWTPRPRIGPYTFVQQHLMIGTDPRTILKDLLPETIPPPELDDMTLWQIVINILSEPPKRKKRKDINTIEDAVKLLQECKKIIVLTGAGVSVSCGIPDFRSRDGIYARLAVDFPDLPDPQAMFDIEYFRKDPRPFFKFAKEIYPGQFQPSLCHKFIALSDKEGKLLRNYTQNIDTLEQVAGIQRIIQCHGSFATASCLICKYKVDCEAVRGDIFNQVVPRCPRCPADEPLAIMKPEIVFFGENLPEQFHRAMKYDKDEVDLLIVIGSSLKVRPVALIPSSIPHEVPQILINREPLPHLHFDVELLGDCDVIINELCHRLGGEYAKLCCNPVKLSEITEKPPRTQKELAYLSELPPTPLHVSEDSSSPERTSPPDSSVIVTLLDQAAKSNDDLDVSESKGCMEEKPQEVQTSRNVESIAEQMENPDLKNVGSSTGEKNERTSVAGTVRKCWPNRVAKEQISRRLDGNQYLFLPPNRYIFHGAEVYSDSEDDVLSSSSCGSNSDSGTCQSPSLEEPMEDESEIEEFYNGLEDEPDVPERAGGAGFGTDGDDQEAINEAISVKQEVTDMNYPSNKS
Assay: Mass spectrometry based assay to identify modulators of SIRT1 activity (deacetylation of p53-based acetylated peptide substrate)
Type: biochemical
Details: SIRT1 activation
quantity.measured: EC1.5

These recorded examples may help you get a feel for the data.
item.smiles	quantity.measured	result
O=C(Nc1ccncc1)N1CCOc2ccc(-c3cccc(F)c3)nc21	EC1.5	B (EC1.5 1-25 μM)
O=C(Nc1cncc(F)c1)N1CCOc2ccc(-c3cccc(C(F)(F)F)c3)nc21	EC1.5	A (EC1.5<1.0 μM)
O=C(Nc1ccncc1)N1CCCc2ccc(-c3cccc(Cl)c3)nc21	EC1.5	A (EC1.5<1.0 μM)
Cc1cc(-c2ccc3c(n2)N(C(=O)Nc2nc(C)cs2)CCCO3)ccn1	EC1.5	B (EC1.5 1-25 μM)
Cc1cc(NC(=O)N2CCOc3ccc(-c4cccc(C(F)(F)F)c4)nc32)ccn1	EC1.5	A (EC1.5<1.0 μM)

Okay, next one:
Q: Please report the recorded EC1.5 for Cc1cncc(NC(=O)N2CCCc3ccc(-c4cccc(F)c4)nc32)c1 .
A: A (EC1.5<1.0 μM)

###

Hi there, I'd appreciate the recorded Emax for every entry that follows.
molecular target: SIRT1 (Homo sapiens); experiment: Mass spectrometry based assay to identify modulators of SIRT1 activity (deacetylation of p53-based acetylated peptide substrate); format: biochemical; details: 25 min, SIRT1 activation, read-out: % FOLD ACT. (percent maximum fold activation)

Q: What does the data say about its Emax? Entry: CC1(C)CCN(C(=O)Nc2cncnc2)c2nc(-c3cccc(C(F)(F)F)c3)ccc21 [Compound 835]
A: > 200%

Q: Please look up its Emax: Cc1cncc(NC(=O)N2CC(C)(C)Oc3ccc(-c4cccc(CN5CCCC5)c4)nc32)c1 [Compound 629]
A: > 200%

Q: Would you kindly share the measured Emax for CN1CCN(C(=O)Nc2cccnn2)c2nc(-c3cccc(C(F)(F)F)c3)ccc21 [Compound 537] ?
A: > 200%

Q: Please report the recorded Emax for Cc1cc(-c2cccc(C(F)(F)F)c2)nc2c1OCCN2C(=O)Nc1ccncc1F [Compound 663] .
A: > 200%

Q: Using the record for O=C(Nc1cccnc1)N1CCCc2ccc(-c3cccnc3)nc21 [Compound 886] , report its Emax.
A: > 200%

Q: Endpoint output: Emax of O=C(Nc1cccc(OC[C@H](O)CO)n1)N1CCCc2ccc(-c3cccc(C(F)(F)F)c3)nc21 [Compound 678] . Value?
A: > 200%

Q: Quick one: Emax of CC1(C)CCN(C(=O)Nc2ccc(F)cn2)c2nc(-c3cccc(C(F)(F)F)c3)ccc21 [Compound 843] ?
A: ≤ 200%

Q: So what does the record say about Emax for O=C(Nc1ncccn1)N1CCCOc2ccc(-c3cccc(Cl)c3)nc21 [Compound 865] ?
A: > 200%

Q: Tell me the measured Emax of Cc1cc(NC(=O)N2CCOc3ccc(-c4cccc(C(F)(F)F)c4)nc32)ccn1 [Compound 548] , please.
A: > 200%

Q: Fill blank: measured Emax of the molecule O=C(Nc1cncc(OCC(O)CO)n1)N1CCC(F)(F)c2ccc(-c3cccc(C(F)(F)F)c3)nc21 (stereo not shown) [Compound 813] is ____.
A: > 200%

Q: What value of Emax has been recorded for this entry: O=C1CCCN(C(=O)Nc2ccncc2)c2nc(-c3cccc(Cl)c3)ccc21 [Compound 756]
A: > 200%

Q: Quick one: Emax for O=C(Nc1ccnc(N2CCC2)c1)N1CCCOc2ccc(-c3cccc(C(F)(F)F)c3)nc21 [Compound 579] ?
A: > 200%

Q: Which Emax reading was recorded for the molecule Cc1cc(NC(=O)N2CCCC(F)(F)c3ccc(-c4cccc(Cl)c4)nc32)cc(C)n1 [Compound 772] ?
A: > 200%

Q: Value lookup for Emax; key = Cc1csc(NC(=O)N2CCCC(F)(F)c3ccc(-c4cccc(Cl)c4)nc32)n1 [Compound 779]
A: ≤ 200%

Q: Request the reported Emax associated with O=C(Nc1ccncc1)N1CCCCc2ccc(-c3cccc(C(F)(F)F)c3)nc21 [Compound 810]
A: > 200%

Q: Endpoint output: Emax of O=C(Nc1ccncc1)N1CCCC(F)(F)c2ccc(-c3cccc(Cl)c3)nc21 [Compound 770] . Value?
A: ≤ 200%

Q: GET /values?readout=Emax&item= Cc1cc(NC(=O)N2CCCC(=O)c3ccc(-c4cccc(C(F)(F)F)c4)nc32)ccn1 [Compound 820]
A: > 200%

Q: What does the data say about its Emax? Entry: O=C(Nc1cccc(N2CCOCC2)n1)N1CCOc2ccc(-c3cccc(C(F)(F)F)c3)nc21 [Compound 506]
A: > 200%

Q: Can you look up the measured Emax of Cc1cc(NC(=O)N2CCOc3ccc(-c4ccnn4C)nc32)cc(C)n1 [Compound 575] for me?
A: > 200%

Q: Return reported Emax; argument: Cc1csc(NC(=O)N2CCOc3cnc(-c4cccc(C(F)(F)F)c4)nc32)n1 [Compound 709]
A: ≤ 200%

Q: Recorded Emax of CC1CCN(C(=O)Nc2ccccn2)c2nc(-c3cccc(C(F)(F)F)c3)ccc21 (stereo not shown) [Compound 785] , please.
A: > 200%

Q: # input molecule: Cc1cc(NC(=O)N2CCOc3ccc(-c4cccc(N(C)C)c4)nc32)cc(C)n1 [Compound 619] ; wanted: its Emax
A: > 200%
